- Tested on: LNCaP-Vancouver prostate cells
- ASSAY COMMENT: In vitro LNCaP Vancouver prostate cell proliferation assay in lipid reduced medium
- Type: cell-based
- PROTOCOL CONDITIONS: read-out: pIC50 LNCaP_Vancouver prostate cell (converted)
Attribute: IC50

Examples with answers:
Cn1nccc1-c1ccc(-c2ccc(C3=NC4(CC4)C(=O)N3C[C@@H]3CCN(C(=O)C4(C)CC4)C3)c(F)c2)cc1 [compound 362]; ~295 nM
COC(=O)N1CC2(C1)N=C(c1ccc(-c3ccc4cccnc4c3)cc1)N(C[C@@H]1CCN(C(=O)[C@H]3CCCO3)C1)C2=O [compound 730]; ~407 nM
Cn1cc(-c2ccc(-c3ccc(C4=NC5(CC5)C(=O)N4CC4CN(C(=O)C5CC5)C4)cc3)cn2)cn1 [compound 517]; ~5250 nM

Query: Write down IC50 measured for item Cc1cc(-c2ccc3sc(C)c(C)c3c2)ccc1C1=NC2(CC2)C(=O)N1CC1CN(C(=O)C2CC2)C1 [compound 290]
Response: ~2140 nM

Query: Write down IC50 measured for item Cn1nc(C(N)=O)c2ccc(-c3ccc(C4=NC5(CC5)C(=O)N4C[C@@H]4CCN(C(=O)C5CC5)C4)cc3)cc21 [compound 221]
Response: ~380 nM

---

- Test system: LNCaP-Vancouver prostate cells
- ASSAY COMMENT: In vitro LNCaP Vancouver prostate cell proliferation assay in lipid reduced medium
- Type: cell-based
- PROTOCOL CONDITIONS: read-out: pIC50 LNCaP_Vancouver prostate cell (converted)
PROPERTY: IC50

Examples with answers:
O=C1Cc2cc(-c3ccc(C4=NC5(CC5)C(=O)N4C[C@@H]4CCN(C(=O)C5CC5)C4)cc3)ccc2N1; > 3020 nM
Cc1sc2ccc(-c3ccc(C4=NC5(CC5)C(=O)N4CC4CN(C(=O)C5CC5)C4)cc3)cc2c1C; ~2510 nM
Cc1sc2ccc(-c3ccc(C4=NC5(CC5)C(=O)N4C[C@@H]4CCN(C(=O)C5CC5)C4)c(F)c3)cc2c1C; ~1700 nM

Query: Write down IC50 measured for item `CC1(C(=O)N2CC(CN3C(=O)C4(CC4)N=C3c3ccc(-c4ccc5cc(F)ccc5c4)cc3F)C2)CC1`
Response: ~79.4 nM

---

- Test system: LNCaP-Vancouver prostate cells
- ASSAY COMMENT: In vitro LNCaP Vancouver prostate cell proliferation assay in lipid reduced medium
- Format: cell-based
- PROTOCOL CONDITIONS: read-out: pIC50 LNCaP_Vancouver prostate cell (converted)
PROPERTY: IC50 (nM)

O=C(C1CC1)N1CC[C@@H](CN2C(=O)C3(CC3)N=C2c2ccc(-c3nc4ccccc4o3)cc2)C1; 661

a = Cc1nc2ccc(-c3ccc(C4=NC5(CC5)C(=O)N4CC4CN(C(=O)C5CC5)C4)c(F)c3)cc2s1
b = O=C([C@H]1CCCO1)N1CC[C@@H](CN2C(=O)C3(CCOCC3)N=C2c2ccc(-c3ccc4cccnc4c3)cc2)C1
Query: Sort a and b by IC50 descending and give the first. Answer with the label corresponding to your selection.
Response: a

---

- STUDY TARGET: hFASN enzyme (full length) (Homo sapiens)
- Construct: 10 μL hFASN enzyme (full length, 300 ng, purified in house); made in house
- ASSAY COMMENT: Fatty Acid Synthase (FASN) inhibition scintillation proximity assay
- Assay type: biochemical
- PROTOCOL CONDITIONS: read-out: Human FASN pIC50 (converted)
PROPERTY: IC50 (nM)

O=C([C@@H]1CCCO1)N1CC[C@@H](CN2C(=O)C3(CCCC3)N=C2c2ccc(-c3ccc4occc4c3)cc2)C1; 295
Cc1cc(-c2ccc3cc(Cl)cnc3c2)ccc1C1=NC2(CC2)C(=O)N1CC1CN(C(=O)C2(C)CC2)C1; 28.8
CN(C)c1cccc(-c2ccc(C3=NC4(CC4)C(=O)N3C[C@@H]3CCN(C(=O)C4CC4)C3)cc2)c1; 398

1 = Cc1ccc2nc(-c3ccc(C4=NC5(CC5)C(=O)N4CC4CN(C(=O)C5CC5)C4)c(F)c3)sc2c1
2 = Cc1cc(-c2cc(Cl)c3cn[nH]c3c2)ccc1C1=NC2(CC2)C(=O)N1CC1CN(C(=O)C2CC2)C1
Query: Sort 1 and 2 by IC50 descending and give the first. Answer with the label corresponding to your selection.
Response: 2

---

- STUDY TARGET: hFASN enzyme (full length) (Homo sapiens, UniProt P49327)
- Construct: 10 μL hFASN enzyme (full length, 300 ng, purified in house); made in house
- Sequence (P49327 whole entry): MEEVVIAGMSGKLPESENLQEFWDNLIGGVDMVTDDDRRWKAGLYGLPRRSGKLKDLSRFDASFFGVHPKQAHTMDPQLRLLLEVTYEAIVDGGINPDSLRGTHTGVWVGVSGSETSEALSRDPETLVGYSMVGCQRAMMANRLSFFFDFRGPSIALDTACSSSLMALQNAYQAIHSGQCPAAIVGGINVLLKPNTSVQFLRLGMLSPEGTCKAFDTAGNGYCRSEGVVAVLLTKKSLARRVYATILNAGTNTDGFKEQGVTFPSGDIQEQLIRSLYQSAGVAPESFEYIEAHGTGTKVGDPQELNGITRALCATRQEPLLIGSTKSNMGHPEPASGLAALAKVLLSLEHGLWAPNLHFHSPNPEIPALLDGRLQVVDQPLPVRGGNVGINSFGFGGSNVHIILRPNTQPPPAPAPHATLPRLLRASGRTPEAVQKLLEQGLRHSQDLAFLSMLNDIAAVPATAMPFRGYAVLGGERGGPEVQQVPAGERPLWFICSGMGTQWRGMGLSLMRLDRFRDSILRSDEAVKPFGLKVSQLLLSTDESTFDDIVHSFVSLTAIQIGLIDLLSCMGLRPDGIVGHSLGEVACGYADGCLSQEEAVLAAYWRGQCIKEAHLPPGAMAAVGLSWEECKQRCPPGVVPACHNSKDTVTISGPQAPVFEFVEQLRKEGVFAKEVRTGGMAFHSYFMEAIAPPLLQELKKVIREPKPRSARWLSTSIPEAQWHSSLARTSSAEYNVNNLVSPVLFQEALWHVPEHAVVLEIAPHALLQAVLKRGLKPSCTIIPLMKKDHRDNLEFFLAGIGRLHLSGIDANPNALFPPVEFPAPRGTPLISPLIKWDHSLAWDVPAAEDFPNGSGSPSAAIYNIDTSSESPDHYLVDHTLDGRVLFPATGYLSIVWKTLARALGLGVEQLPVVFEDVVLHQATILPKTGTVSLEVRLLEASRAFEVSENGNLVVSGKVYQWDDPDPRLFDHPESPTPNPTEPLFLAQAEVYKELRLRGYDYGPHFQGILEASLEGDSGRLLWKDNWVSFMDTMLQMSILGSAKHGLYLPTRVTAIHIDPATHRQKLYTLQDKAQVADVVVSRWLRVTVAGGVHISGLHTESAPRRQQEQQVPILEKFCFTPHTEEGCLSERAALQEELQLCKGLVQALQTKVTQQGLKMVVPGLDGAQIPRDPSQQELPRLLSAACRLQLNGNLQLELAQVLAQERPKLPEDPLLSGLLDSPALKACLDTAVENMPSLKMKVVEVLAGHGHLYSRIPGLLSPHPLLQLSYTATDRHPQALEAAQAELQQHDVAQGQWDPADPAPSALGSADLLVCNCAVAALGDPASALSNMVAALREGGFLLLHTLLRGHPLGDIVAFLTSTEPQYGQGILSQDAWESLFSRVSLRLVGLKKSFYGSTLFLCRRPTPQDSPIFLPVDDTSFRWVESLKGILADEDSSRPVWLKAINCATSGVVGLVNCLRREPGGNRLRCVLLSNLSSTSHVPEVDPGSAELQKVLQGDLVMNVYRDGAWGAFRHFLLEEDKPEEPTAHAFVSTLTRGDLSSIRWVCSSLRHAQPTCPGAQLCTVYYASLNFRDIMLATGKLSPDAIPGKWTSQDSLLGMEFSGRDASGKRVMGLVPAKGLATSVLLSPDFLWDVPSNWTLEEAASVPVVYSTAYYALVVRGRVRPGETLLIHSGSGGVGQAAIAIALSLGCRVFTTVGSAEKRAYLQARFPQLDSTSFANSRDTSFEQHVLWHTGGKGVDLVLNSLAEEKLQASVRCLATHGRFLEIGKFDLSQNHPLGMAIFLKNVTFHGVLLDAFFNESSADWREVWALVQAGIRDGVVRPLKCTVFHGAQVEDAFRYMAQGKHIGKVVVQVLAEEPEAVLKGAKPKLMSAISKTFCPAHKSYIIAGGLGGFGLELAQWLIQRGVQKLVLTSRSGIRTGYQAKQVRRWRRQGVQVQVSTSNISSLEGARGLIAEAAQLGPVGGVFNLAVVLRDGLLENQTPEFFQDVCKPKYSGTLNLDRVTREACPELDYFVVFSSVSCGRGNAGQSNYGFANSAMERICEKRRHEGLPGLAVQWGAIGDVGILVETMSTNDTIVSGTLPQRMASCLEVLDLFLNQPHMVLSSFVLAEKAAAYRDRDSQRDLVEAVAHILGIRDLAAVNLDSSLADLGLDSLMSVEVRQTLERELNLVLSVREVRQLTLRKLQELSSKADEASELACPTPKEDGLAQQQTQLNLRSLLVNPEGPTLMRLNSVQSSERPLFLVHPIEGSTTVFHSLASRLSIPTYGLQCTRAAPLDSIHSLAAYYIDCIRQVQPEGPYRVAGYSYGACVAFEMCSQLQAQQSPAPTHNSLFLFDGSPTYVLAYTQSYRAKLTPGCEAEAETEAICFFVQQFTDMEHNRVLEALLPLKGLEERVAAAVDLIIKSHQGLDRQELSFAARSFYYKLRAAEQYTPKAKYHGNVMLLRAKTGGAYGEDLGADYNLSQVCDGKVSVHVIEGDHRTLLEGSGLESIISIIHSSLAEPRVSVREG
- ASSAY COMMENT: Fatty Acid Synthase (FASN) inhibition scintillation proximity assay
- Type: biochemical
- PROTOCOL CONDITIONS: read-out: Human FASN % inhibition @ 10 μM, 10 μM test compound
PROPERTY: inhibition at 10 µM (%)

Examples with answers:
O=C(N1CC[C@@H](CN2C(=O)C3(CCOC3)N=C2c2ccc(-c3ccc4cccnc4c3)cc2)C1)C(F)(F)F (stereo partly drawn) [compound 684]; 61
N#Cc1ccc2cc(-c3ccc(C4=NC5(CC5)C(=O)N4CC4CN(C(=O)C5(F)CC5)C4)c(F)c3)ccc2c1 [compound 225]; 95
Cn1ccc(-c2ccc(-c3ccc(C4=NC5(CC5)C(=O)N4CC4CN(C(=O)C5CC5)C4)cc3)cc2)n1 [compound 542]; 89

A = Cc1cc(-c2ccc3occc3c2)ccc1C1=NC2(CC2)C(=O)N1C[C@@H]1CCN(C(=O)C2CC2)C1 [compound 278]
B = O=C(c1nccs1)N1CC[C@@H](CN2C(=O)C3(CCOCC3)N=C2c2ccc(-c3ccc4occc4c3)cc2)C1 [compound 958]
C = Cc1ccc2c(-c3ccc(C4=NC5(CC5)C(=O)N4CC4CN(C(=O)C5CC5)C4)cc3)cccc2n1 [compound 790]
Query: Sort low-to-high on inhibition at 10 µM, please. List the labels in the requested order.
Response: B, C, A
(B: -6%, C: 47%, A: 113%)

---

- STUDY TARGET: hFASN enzyme (full length) (Homo sapiens, UniProt P49327)
- Construct: 10 μL hFASN enzyme (full length, 300 ng, purified in house); made in house
- ASSAY COMMENT: Fatty Acid Synthase (FASN) inhibition scintillation proximity assay
- Type: biochemical
- PROTOCOL CONDITIONS: read-out: Human FASN pIC50 (converted)
PROPERTY: IC50 (µM)

Examples with answers:
O=C(C1CC1)N1CC(CN2C(=O)C3(CCCC3)N=C2c2ccc(-c3ccc4cnccc4c3)cc2)C1; 0.0617
O=C(C1CC1)N1CC[C@@H](CN2C(=O)C3(CC3)N=C2c2ccc(-c3ccc4occc4c3)nc2)C1; 0.49

I = Cc1cc(C2=NC3(CC3)C(=O)N2CC2CN(C(=O)C3CC3)C2)ccc1-c1ccc2[nH]ncc2c1
II = Cn1c(-c2ccc(C3=NC4(CC4)C(=O)N3CC3CN(C(=O)C4CC4)C3)c(F)c2)nc2ccc(F)cc21
Query: Compare reported IC50 values for I and II . Which is lower? Answer with the label corresponding to your selection.
Response: II
(II: 3.02 µM, I: 8.51 µM)

---

Attribute: IC50
- System: LNCaP-Vancouver prostate cells
- ASSAY COMMENT: In vitro LNCaP Vancouver prostate cell proliferation assay in lipid reduced medium
- Format: cell-based
- PROTOCOL CONDITIONS: read-out: pIC50 LNCaP_Vancouver prostate cell (converted)

Cc1cc(-c2ccc3c(c2)ncn3C)ccc1C1=NC2(CC2)C(=O)N1CC1CN(C(=O)C2(C)CC2)C1; ~0.129 µM
CC(O)C(=O)N1CC(CN2C(=O)C3(CCOCC3)N=C2c2ccc(-c3ccc4cccnc4c3)cc2)C1 (stereo not drawn); > 10 µM

Please turn your attention to the following entry.
Query: Recall the reported IC50 of `COC(=O)N1CC2(C1)N=C(c1ccc(-c3ccc4c(cnn4C)c3)cc1)N(C[C@@H]1CCN(C(=O)C3CC3)C1)C2=O` on LNCaP-Vancouver prostate cells and write it down.
Response: ~3.72 µM

---

Attribute: IC50
- STUDY TARGET: hFASN enzyme (full length) (Homo sapiens)
- Construct: 10 μL hFASN enzyme (full length, 300 ng, purified in house); made in house
- ASSAY COMMENT: Fatty Acid Synthase (FASN) inhibition scintillation proximity assay
- Type: biochemical
- PROTOCOL CONDITIONS: read-out: Human FASN pIC50 (converted)

Examples with answers:
Cn1cc(-c2ccc(-c3ccc(C4=NC5(CCOCC5)C(=O)N4C[C@@H]4CCN(C(=O)C(F)(F)F)C4)cc3)cc2)cn1; ~8.32 µM
CC(C)n1ncc2cc(-c3ccc(C4=NC5(CC5)C(=O)N4C[C@@H]4CCN(C(=O)C5CC5)C4)cc3)ccc21; ~6.03 µM
CN1CCN(c2ccc(-c3ccc(C4=NC5(CCCC5)C(=O)N4C[C@@H]4CCN(C(=O)C5CC5)C4)cc3)cn2)CC1; > 10 µM
Cc1ccc(-c2ccc(-c3ccc(C4=NC5(CC5)C(=O)N4C[C@@H]4CCCN(C(=O)C5CC5)C4)cc3)cc2)cc1; > 10 µM
COC(=O)N1CC2(C1)N=C(c1ccc(-c3ccc4cccnc4c3)cc1)N(C[C@@H]1CCN(C(=O)C(C)O)C1)C2=O (some centres unmarked); 0.309 µM

Query: Write down IC50 measured for item `Cn1nc2ccc(-c3ccc(C4=NC5(CC5)C(=O)N4C[C@@H]4CCN(C(=O)C5CC5)C4)cc3)cc2c1CO`
Response: 1.17 µM

Query: Write down IC50 measured for item `O=C(C1CC1)N1CC[C@@H](CN2C(=O)C3(CC3)N=C2c2ccc(-c3ccc4cc[nH]c4c3)cn2)C1`
Response: 0.138 µM

Query: Write down IC50 measured for item `O=C(C1CC1)N1CC(CN2C(=O)C3(CC3)N=C2c2ccc(-c3ccc4c(cnn4C4CC4)c3)cc2)C1`
Response: > 10 µM
